This collection of values is drawn from ChEMBL document CHEMBL1139371.

Test system: 1A9
assay-notes: Antiproliferative activity against human 1A9 cells after 4 days by SRB assay
Format: functional, cell-based
condition-parameters: 1A9, 96 h
pIC50: −log10 of the molar value.
Quick rule: pIC50 of at least 7 means true, below that means false.

The examples below pair each entry with its known result.
>  <molecule>
CC[C@H](C)[C@H](NC(=O)[C@H]1CCCCN1C)C(=O)N[C@H](C[C@H](O)c1nc(C(=O)N[C@@H](Cc2ccccc2)C[C@H](C)C(=O)O)cs1)C(C)C

>  <class-name>
false

$$$$
>  <molecule>
CC[C@H](C)[C@H](NC(=O)[C@@H](C)N(C)C)C(=O)NC(CC(=O)c1nc(C(=O)N[C@H](CCC(=O)O)Cc2ccccc2)cs1)C(C)C (single isomer, unassigned)

>  <class-name>
false

$$$$
>  <molecule>
CN[C@H](C(=O)N[C@H](C(=O)N(C)[C@H](/C=C(\C)C(=O)O)C(C)C)C(C)(C)C)C(C)(C)c1ccccc1

>  <class-name>
true

$$$$
>  <molecule>
CC[C@H](C)[C@H](NC(=O)[C@@H](C)N(C)C)C(=O)N[C@H](CC(=O)c1nc(C(=O)N[C@@H](Cc2ccccc2)C[C@H](C)C(=O)O)cs1)C(C)C

>  <class-name>
false

$$$$
>  <molecule>
CC[C@H](C)[C@H](NC(=O)[C@H]1CCCCN1C)C(=O)N[C@H](C[C@@H](OC(C)=O)c1nc(C(=O)N[C@@H](Cc2ccccc2)C[C@H](C)C(=O)O)cs1)C(C)C

>  <class-name>
true

$$$$

Continue with the molecule presented below.
Could you verify whether the entry "CC[C@H](C)[C@H](NC(=O)[C@@H](C)N(C)C)C(=O)N[C@H](CC(=O)c1nc(C(=O)N[C@@H](Cc2ccccc2)CC(C)(C)C(=O)O)cs1)C(C)C" shows pIC50 of no less than 7? false
